Biological target: Estrogen receptor (Homo sapiens)
Experiment: qHTS assay to identify small molecule agonists of the estrogen receptor alpha (ER-alpha) signaling pathway (AID 743075);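 also: HEK293 GripTite cells with ER-alpha and UAS-driven beta-lactamase reporter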
Settings: HEK293 ER-alpha-UAS-bla, beta-lactamase FRET ratio, 18 h; series mostly up to 70.1 µM
Calls of active or inactive are those of the source. Calls follow the shape of the full dose curve.
Please reply with one of these outcomes: true = active, false = inactive

Worked set:
O=C(O)C[C@H](NC(=O)OCc1ccccc1)C(=O)O : false
CCOC(=O)[C@H](CCc1ccccc1)N[C@@H](C)C(=O)N(CC(=O)O)C1Cc2ccccc2C1 : false
O=C1NC(=O)c2cc([N+](=O)[O-])ccc21 : false
CC(C)=CC(=O)C=C(C)C : false
CO[C@]1(NC(=O)CSC(F)F)C(=O)N2C(C(=O)O)=C(CSc3nnnn3CCO)CO[C@H]21 : false
COc1ccccc1N1CCN(CCCCNC(=O)c2ccc(-c3ccc(C(C)=O)cc3)cc2)CC1 : false
O=C1Cc2ccccc2N1c1c(Cl)cccc1Cl : true
COc1cc(N)c(Cl)cc1C(=O)NC1CCN(CCCOc2ccc(F)cc2)CC1OC (stereo not drawn) : false

Challenge: Test call for this molecule, please: COC(=O)C1=C(C)NC(C)=C(C(=O)O[C@@H]2CCCN(Cc3ccccc3)C2)[C@@H]1c1cccc([N+](=O)[O-])c1
Response given: false

Challenge: Per the assay record, what outcome was assigned to CCCCC(CC)CN (stereo not drawn) ?
Response given: false

Challenge: Returns: the outcome recorded for O=C(O)CCCCCCCCCCCBr in this assay.
Response given: false

Challenge: Given COc1cc(C(=O)NC2CCN(C)CC2)ccc1Nc1ncc2c(n1)N(C1CCCC1)CC(F)(F)C(=O)N2C , state the outcome it received in this test.
Response given: false

Challenge: Please indicate how the test categorized O[C@@H]1CO[C@H]2[C@@H]1OC[C@@H]2O .
Response given: false

Challenge: Outcome logged for CN(C)CCN1C(=O)c2ccccc2N(C)c2ccccc21 in this assay:
Response given: false

Challenge: // outcome(item) with item = C=CC(=O)[O-].C=CC(=O)[O-].[Zn+2]
Response given: false

----------
Assay: qHTS assay for small molecule disruptors of the mitochondrial membrane potential - cell viability (AID 720634); also: nearly all actives have a fitted effect of over 20% in size
Conditions: HepG2 viability, ATP luminescence (CellTiter-Glo), 1 h; series mostly up to 83.2 µM
Inconclusive results are not listed. Calls of active or inactive are those of the source. Calls follow the shape of the full dose curve.
Respond only with the outcome that fits, drawn from label 1 for active, label 0 for inactive

The examples below pair each entry with its known result.
CC(C)C=O : label 0
Nc1ccc(N=Nc2ccccc2)c(N)c1 : label 1
O[C@@H]1CO[C@H]2[C@@H]1OC[C@@H]2O : label 0
O=[N+]([O-])c1ccc(Nc2ccc(Nc3ccccc3)c(S(=O)(=O)O)c2)c([N+](=O)[O-])c1 : label 0
Nc1cccc2c1CN(C1CCC(=O)NC1=O)C2=O (configuration not stated) : label 0
N#CCc1ccc(Cl)cc1Cl : label 0
C=C(C)[C@@H]1CCC2=CCC[C@@H](C)[C@]2(C)C1 : label 0
O=C1C(=O)c2ccccc2C(O)=C1C1CCC(c2ccc(Cl)cc2)CC1 (configuration not stated) : label 0

Challenge: Give the logged outcome of this assay for the following molecule: CN1C(C(=O)Nc2ccccn2)=C(O)c2sccc2S1(=O)=O
Response given: label 0

Challenge: Any idea what this test logged for O=[N+]([O-])c1ccc(O/N=C/c2cc(Br)c(O)c(Br)c2)c([N+](=O)[O-])c1 ?
Response given: label 1

Challenge: Recorded test call requested for CC(CN(C)C)C(C)(O)Cc1ccc(Cl)cc1 (configuration not stated)
Response given: label 0

Challenge: Each molecule tested received a call. Report the one for CCCC(C(=O)OCCN(CC)CC)(c1ccccc1)c1ccccc1 .
Response given: label 0

----------
Biological target: Voltage-gated inwardly rectifying potassium channel KCNH2 (Homo sapiens) (UniProt Q12809)
Sequence (Q12809 whole entry, looked up): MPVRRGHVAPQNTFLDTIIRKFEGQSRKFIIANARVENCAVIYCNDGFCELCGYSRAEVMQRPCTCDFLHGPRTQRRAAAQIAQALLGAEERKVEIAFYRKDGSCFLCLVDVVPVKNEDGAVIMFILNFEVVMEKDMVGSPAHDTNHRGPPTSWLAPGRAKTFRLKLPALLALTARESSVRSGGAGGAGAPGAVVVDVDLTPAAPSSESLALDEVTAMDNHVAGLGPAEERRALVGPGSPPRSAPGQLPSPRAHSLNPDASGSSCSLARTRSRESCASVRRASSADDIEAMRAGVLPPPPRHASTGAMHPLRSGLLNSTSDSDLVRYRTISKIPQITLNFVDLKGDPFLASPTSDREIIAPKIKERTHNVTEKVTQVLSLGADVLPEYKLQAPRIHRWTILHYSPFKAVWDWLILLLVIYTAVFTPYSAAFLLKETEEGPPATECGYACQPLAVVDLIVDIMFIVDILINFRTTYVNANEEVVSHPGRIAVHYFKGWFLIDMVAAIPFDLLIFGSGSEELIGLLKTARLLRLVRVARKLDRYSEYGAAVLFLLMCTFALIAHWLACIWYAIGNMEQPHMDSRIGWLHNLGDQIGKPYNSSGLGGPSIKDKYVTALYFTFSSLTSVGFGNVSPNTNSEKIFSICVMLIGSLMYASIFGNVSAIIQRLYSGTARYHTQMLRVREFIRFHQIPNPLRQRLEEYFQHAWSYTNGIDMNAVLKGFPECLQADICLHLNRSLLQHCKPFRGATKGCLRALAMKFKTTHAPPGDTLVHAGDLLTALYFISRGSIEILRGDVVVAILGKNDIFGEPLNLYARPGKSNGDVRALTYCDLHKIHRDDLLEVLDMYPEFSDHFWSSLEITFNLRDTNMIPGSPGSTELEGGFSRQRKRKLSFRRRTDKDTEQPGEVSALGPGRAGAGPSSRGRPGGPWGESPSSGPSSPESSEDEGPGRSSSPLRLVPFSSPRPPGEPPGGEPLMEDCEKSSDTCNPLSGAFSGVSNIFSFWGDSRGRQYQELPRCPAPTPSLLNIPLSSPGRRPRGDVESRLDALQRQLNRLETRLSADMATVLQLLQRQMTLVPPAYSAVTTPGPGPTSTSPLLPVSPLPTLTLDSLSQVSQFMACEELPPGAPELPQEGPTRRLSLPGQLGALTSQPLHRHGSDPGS
Experiment: Human Ether-a-go-go-Related Gene (hERG) channel small molecule antagonists: fluorescence cell-based qHTS assay (AID 1671200);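 also: hERG-expressing U2OS cells given a thallium stimulus after FluxOR II dye loading; % is scaled to controls: 0 for no effect and ±100 for the full control effect; nearly all actives have a fitted effect of over 50% in size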
Conditions: hERG-U2OS cells, FluxOR thallium flux fluorescence; series mostly up to 76.8 µM
Records with an inconclusive call do not appear. The source made the active and inactive calls. Calls follow the shape of the dose curve; as a rule, active = well fitted inhibition curve with a large enough effect in the repeat runs; inconclusive = weak or mixed curves; inactive = flat fitted curve, though single readings scatter.
assayReadout: outcome

// worked examples, outcome included
CCCCCCCCCCC(=O)O : inactive
O=C=Nc1cccc(C(F)(F)F)c1 : inactive
CN1CC(=O)N2[C@H](c3ccc4c(c3)OCO4)c3[nH]c4ccccc4c3C[C@@H]2C1=O : inactive
Cc1cc(C)c(N)cc1C : inactive
CCCC(=O)C(=O)O : inactive

The following compounds each have a reported value; give each one's outcome.
1. CCN(CC)CCNC(=O)COc1ccc(OC)cc1
2. O=C1c2ccccc2C(=O)c2c(O)c(O)cc(O)c21
3. C=CC(C)(CCC=C(C)C)OC(=O)CC(C)C (stereo unspecified)
4. C1C[C@@H]2[C@H]3CC[C@H](C3)[C@@H]2C1
5. O=C(OC(=O)c1ccccc1)c1ccccc1
6. O=c1cc(-c2ccccc2)oc2cc(O)cc(O)c12
7. CCC(C)COC(=O)CC(C)C (stereo unspecified)

Response given:
1. inactive
2. inactive
3. inactive
4. inactive
5. inactive
6. inactive
7. inactive

For every listed record, write down its outcome.
1. C=C(C)[C@@H]1CCC2=CCC[C@@H](C)[C@]2(C)C1
2. Cc1ccco1
3. CCOC(=O)OC(C)OC(=O)[C@@H]1N2C(=O)[C@@H](NC(=O)[C@H](N)c3ccccc3)[C@H]2SC1(C)C (stereo partly specified)
4. CCCCCCC(C)(C)C(=O)O
5. CC[C@]1(O)C[C@H]2CN(CCc3c([nH]c4ccccc34)[C@@](C(=O)OC)(c3cc4c(cc3OC)N(C=O)[C@H]3[C@@](O)(C(=O)OC)[C@H](OC(C)=O)[C@]5(CC)C=CCN6CC[C@]43[C@@H]65)C2)C1
6. CC(=O)Nc1ccc(C)cc1C
7. O=c1[nH]c2ccc(Cl)cc2o1
8. CCCCC(CC)COP(=O)(O)O (stereo unspecified)

Response given:
inactive
inactive
inactive
inactive
inactive
inactive
inactive
inactive

Please look at the items below and tell me outcome for each one, in order.
1. O=c1cc(-c2ccccc2)oc2ccc3ccccc3c12
2. Cc1cccc(N(C)C(=S)Oc2ccc3c(c2)CCC3)c1
3. O=C(O)c1cccc(-c2noc(-c3ccccc3F)n2)c1
4. N#[N+]c1ccc2c(S(=O)(=O)[O-])cccc2c1O
5. FC(F)(F)c1ccccc1Cl

Response given:
["inactive", "inactive", "inactive", "inactive", "inactive"]

Challenge: # get_value(readout='outcome', item= c1csc(SSc2cccs2)c1 )
Response given: inactive

----------
Provide the recorded max activation for the entries that follow.
Molecular target: Nuclear receptor subfamily 1 group I member 2 (Rattus norvegicus)
Experiment: Rat pregnane X receptor (rPXR) activation by small molecules, qHTS assay (AID 1346983); also: % is scaled to controls: 0 for no effect and ±100 for the full control effect; nearly all actives have a fitted effect of over 20% in size
Details: rPXR luciferase reporter cells, One-Glo luminescence, 24 h; stronger effect = higher value
Inconclusive results are not listed.
Numbers only, in %.

Look over these answered cases.
Cc1ccc(Cl)c(Nc2ccccc2C(=O)O)c1Cl : 0.813
OC[C@H]1O[C@@H](n2cnc3c(=S)nc[nH]c32)[C@H](O)[C@@H]1O : -1.15
CCCCCCNC(=O)n1cc(F)c(=O)[nH]c1=O : -10.4
CCCCOc1ccc(OCCCN2CCOCC2)cc1 : -1.82

// for each compound in input: emit max activation
1. Cc1ccc2c(Br)cc(Br)c(O)c2n1
2. Nc1ncnc2c1ncn2[C@H]1CC[C@@H](CO)O1
3. CO/N=C(/C(=O)N[C@@H]1C(=O)N2C(C(=O)O)=C(COC(N)=O)CS[C@H]12)c1ccco1
4. O=C1C(=O)c2ccccc2C(O)=C1C1CCC(c2ccc(Cl)cc2)CC1 (centres undefined)
5. C=Cc1ccc(S(=O)(=O)O)cc1

Response given:
[-3.38, 1.66, -0.884, 0.127, -2.52]

----------
Test: qHTS assay for small molecule agonists of the antioxidant response element (ARE) signaling pathway - cell viability counter screen (AID 743203); also: % is scaled to controls: 0 for no effect and ±100 for the full control effect; nearly all actives have a fitted effect of over 55% in size
Details: ARE-bla HepG2 viability, CellTiter-Glo luminescence, 16 h; series mostly up to 73.3 µM
Records with an inconclusive call do not appear. Activity calls are given as the source filed them. The call rests on the fitted dose curve.
Your response should consist of one outcome taken from 1.0 = active, 0.0 = inactive

Worked set:
CN(C)CCN1C(=O)c2ccccc2N(C)c2ccccc21 : 0.0
CN1C(=O)c2ccccc2C1=O : 0.0
C=C(C)[C@@H]1CCC2=CCC[C@@H](C)[C@]2(C)C1 : 0.0
Oc1cc2c(cc1O)[C@H]1c3ccc(O)c(O)c3OC[C@@]1(O)C2 : 0.0

Challenge: How did this test come out for CCOC(=O)c1ccccc1C(=C1C=C(Br)C(=O)C(Br)=C1)c1cc(Br)c(O)c(Br)c1 ?
Response given: 0.0

Challenge: How was O=Cc1c2ccccc2c(Cl)c2ccccc12 classified in this test?
Response given: 0.0

Challenge: Recorded test outcome, item CCOC(=O)[C@H](CCc1ccccc1)N[C@@H](C)C(=O)N(CC(=O)O)C1Cc2ccccc2C1
Response given: 0.0
